Target: T1, human TREM2 (human, UniProt Q9NZC2 19-174, limits assumed)
T1 construct: also called triggering receptor expressed on myeloid cells 2
T1 sequence: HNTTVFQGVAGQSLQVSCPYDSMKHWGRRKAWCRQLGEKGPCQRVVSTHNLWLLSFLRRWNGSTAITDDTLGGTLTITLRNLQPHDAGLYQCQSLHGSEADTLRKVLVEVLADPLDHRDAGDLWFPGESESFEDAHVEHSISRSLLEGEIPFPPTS
Experiment: 1st screen, 10 nM Ab

Binder: V4 (antibody, V domains shown, also called 6E7 variant V4) VH: EVQLVQSGAEVKKPGESLKISCKGSGYSFGSYWIAWVRQMPGKGLEWMGIIYPGDSDTRVSPSFQGQVTISADKSISTAYLQWSSLKASDTAMYFCARSRTFYYDSSDYFDYWGQGTLVTVSS VL: DIQMTQSPSSVSASVGDRVTITCRASQGISSWLAWYQQKPGKAPKLLIYAASRLQNGVPSRFSGSGSGTDFTLTISSLQPEDFATYFCQQADSYPRTFGQGTKLEIK
Binding Signal: 6 fold over 6E7 parental antibody

Binder: V74 (antibody, V domains shown, also called 6E7 variant V74) VH: EVQLVQSGAEVKKPGESLKISCKGSGYSFASYWIAWVRQMPGKGLEWMGIIYPGDSDVRYSPSFQGQVTISADKSISTAYLQWSSLKASDTAMYFCARGRTFYYDSSDYFDYWGQGTLVTVSS VL: DIQMTQSPSSVSASVGDRVTITCRASQGISSWLAWYQQKPGKAPKLLIYAASSLQLGVPSRFSGSGSGTDFTLTISSLQPEDFATYFCQQADSFPRTFGQGTKLEIK
Binding Signal: 3.94 fold over 6E7 parental antibody

Binder: V37 (antibody, V domains shown, also called 6E7 variant V37) VH: EVQLVQSGAEVKKPGESLKISCKGSGYSHTSYWIAWVRQMPGKGLEWMGIIYPGDSDTRYSPSFAGQVTISADKSISTAYLQWSSLKASDTAMYFCARSRTFYYDSSDYFDYWGQGTLVTVSS VL: DIQMTQSPSSVSASVGDRVTITCRASQGISSWLAWYQQKPGKAPKLLIYAASSLQWGVPSRFSGSGSGTDFTLTISSLQPEDFATYFCQQADSYPRTFGQGTKLEIK
Binding Signal: 3.46 fold over 6E7 parental antibody

Binder: V60 (antibody, V domains shown, also called 6E7 variant V60; LV-108/HV-108) VH: EVQLVQSGAEVKKPGESLKISCKGSGYHFTSYWIAWVRQMPGKGLEWMGIIYPGDSDVRYSPSFQGQVTISADKSISTAYLQWSSLKASDTAMYFCARQRTFYYDSSDYSDYWGQGTLVTVSS VL: DIQMTQSPSSVSASVGDRVTITCRASQGISSWLAWYQQKPGKAPKLLIYAASSLQRGVPSRFSGSGSGTDFTLTISSLQPEDFATYFCGQADSFPRTFGQGTKLEIK
Binding Signal: 3.26 fold over 6E7 parental antibody

Binder: V29 (antibody, V domains shown, also called 6E7 variant V29) VH: EVQLVQSGAEVKKPGESLKISCKGSGYSFKSYWIAWVRQMPGKGLEWMGIIYPGDSDTRYSPSFQGQVTISADKSISTAYLQWSSLKASDTAMYFCARQRTFYYDSSDYFDYWGQGTLVTVSS VL: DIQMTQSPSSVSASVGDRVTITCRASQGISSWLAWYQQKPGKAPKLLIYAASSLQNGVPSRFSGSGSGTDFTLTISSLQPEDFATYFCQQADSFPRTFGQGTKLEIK
Binding Signal: 1.53 fold over 6E7 parental antibody

Binder: V28 (antibody, V domains shown, also called 6E7 variant V28) VH: EVQLVQSGAEVKKPGESLKISCKGSGYSFQSYWIAWVRQMPGKGLEWMGTIYPGDSDTRYSPSFQGQVTISADKSISTAYLQWSSLKASDTAMYFCARQRTFFYDSSDYFDYWGQGTLVTVSS VL: DIQMTQSPSSVSASVGDRVTITCRASQGISSWLAWYQQKPGKAPKLLIYAASSLQSGVPSRFSGSGSGTDFTLTISSLQPEDFATYFCQQADSLPRTFGQGTKLEIK
Binding Signal: 3.08 fold over 6E7 parental antibody

Binder: V13 (antibody, V domains shown, also called 6E7 variant V13) VH: EVQLVQSGAEVKKPGESLKISCKGSGYSFGSYWIAWVRQMPGKGLEWMGIIYPGDSDTRYSASFQGQVTISADKSISTAYLQWSSLKASDTAMYFCARGRTFYYDSSDYFDYWGQGTLVTVSS VL: DIQMTQSPSSVSASVGDRVTITCRASQGISSWLAWYQQKPGKAPKLLIYAASSLQGGVPSRFSGSGSGTDFTLTISSLQPEDFATYFCQQADSMPRTFGQGTKLEIK
Binding Signal: 1.31 fold over 6E7 parental antibody

Binder: V17 (antibody, V domains shown, also called 6E7 variant V17) VH: EVQLVQSGAEVKKPGESLKISCKGSGYSFGSYWIAWVRQMPGKGLEWMGIIYPGDSDTRYSPSFQGQVTISADKSISTAYLQWSSLKASDTAMYFCARSRTFYYDSSDYFDYWGQGTLVTVSS VL: DIQMTQSPSSVSASVGDRVTITCRASQGISSWLAWYQQKPGKAPKLLIYAASSRQNGVPSRFSGSGSGTDFTLTISSLQPEDFATYFCQQADSSPRTFGQGTKLEIK
Binding Signal: 5.37 fold over 6E7 parental antibody

Binder: V51 (antibody, V domains shown, also called 6E7 variant V51) VH: EVQLVQSGAEVKKPGESLKISCKGSGYSFTSYWIAWVRQMPGKGLEWMGIIYPGDSDVRYSPSFQGQVTISADKSISTAYLQWSSLKASDTAMYFCARGRTFYYDSSDYFDNWGQGTLVTVSS VL: DIQMTQSPSSVSASVGDRVTITCRASQGISSWLAWYQQKPGKAPKLLIYAASSRQNGVPSRFSGSGSGTDFTLTISSLQPEDFATYFCQQADSFPRTFGQGTKLEIK
Binding Signal: 2.81 fold over 6E7 parental antibody

Binder: V65 (antibody, V domains shown, also called 6E7 variant V65) VH: EVQLVQSGAEVKKPGESLKISCKGSGYSFTSYWIAWVRQMPGKGLEWMGIIYPGDSDTRYSPSFQGQVTISADKSISTAYLQWSSLKASDTAMYFCARSRTFYYDSSDYFDYWGQGTLVTVSS VL: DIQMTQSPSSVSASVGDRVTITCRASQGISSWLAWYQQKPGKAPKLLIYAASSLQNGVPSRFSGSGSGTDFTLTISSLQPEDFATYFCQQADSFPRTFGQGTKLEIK
Binding Signal: 2.05 fold over 6E7 parental antibody
